Target: T1, TIM-1 antigen (Homo sapiens, UniProt Q96D42, DEL158-162/L179P)
T1 construct: V5; His; made in house; host or cells: baculovirus expression system (pMelV5His vector / pBlueBac)
T1 sequence (Q96D42 with tags, fused parts or gaps DEL158-162/L179P): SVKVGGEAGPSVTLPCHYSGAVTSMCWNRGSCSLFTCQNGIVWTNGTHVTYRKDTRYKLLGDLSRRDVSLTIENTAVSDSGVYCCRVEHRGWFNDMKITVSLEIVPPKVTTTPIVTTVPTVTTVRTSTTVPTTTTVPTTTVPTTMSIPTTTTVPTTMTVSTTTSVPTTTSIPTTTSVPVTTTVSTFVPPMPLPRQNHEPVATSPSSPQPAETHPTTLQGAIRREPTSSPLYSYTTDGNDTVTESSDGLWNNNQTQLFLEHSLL
Assay: Epitope binning (antigen binding competition, Luminex)
Conditions: Table 9

molecule	Bin
mAb 2.56: fully human IgG4 kappa anti-TIM-1 monoclonal antibody; heavy chain SEQ ID NO: 30, light chain SEQ ID NO: 32 (antibody, listed as Homo Sapiens) heavy: QVQLVESGGGVVQPGRSLRLSCAASGFTFSSYGMHWVRQAPGKGLEWVAVIWYDGSHKYYADSVKGRFTISRDNSKNTLYLQMNSLRAEDTAVYYSARDYYDTSRHHWGFDCWGQGTLVTVSSA light: EIVMTQTPLSLPVTPGEPASISCRSSQSLLDSEDGNTYLDWYLQKPGQSPQLLIYTLSHRASGVPDRFSGSGSGTDFTLKISRVEAEDVGVYCCMQRVEFPITFGQGTRLEIKR	5
